# measurement_protocol: Oral bioavailability (F%) of compound was determined as average of four rats at each dose of 5 mg/kg intravenous and 20 mg/kg peroral administration
# Assay type: ADME, organism-based
# experimental_setup: rat, in vivo
quantity_name: bioavailability (%)
Could you give me the number in %? Just the number is fine.

Please give the measured bioavailability for this compound: O=c1cc(-c2ccc3c(c2)ncn3-c2ccccc2)ccn1CCCN1CCCCC1
73

* * *

# measurement_protocol: Volume distribution of compound was determined as average of four rats at each dose of 5 mg/kg intravenous and 20 mg/kg peroral administration
# Format: ADME, organism-based
# experimental_setup: rat, in vivo, read-out: Vdss
quantity_name: Vd
Please answer using the number first and the unit second.

Please give the measured Vd for this compound: O=c1cc(-c2ccc3c(c2)ncn3-c2ccccc2)ccn1CCCN1CCCCC1
3.9 L/kg
